Entry source: patent US20250195521A1

Here, each record is paired with measured IC50 data.
- target_system: KRAS Q61H (Homo sapiens (Human), UniProt P01116+P62937, Q61H)
- Sequence (P01116 other isoform, or with tags, fused parts or gaps Q61H): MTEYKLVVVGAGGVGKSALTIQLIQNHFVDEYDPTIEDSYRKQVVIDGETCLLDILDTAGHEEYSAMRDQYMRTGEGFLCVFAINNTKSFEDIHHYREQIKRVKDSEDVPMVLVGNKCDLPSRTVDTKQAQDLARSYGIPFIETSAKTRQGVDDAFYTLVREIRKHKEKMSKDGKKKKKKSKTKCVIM
- Sequence (P62937 whole entry): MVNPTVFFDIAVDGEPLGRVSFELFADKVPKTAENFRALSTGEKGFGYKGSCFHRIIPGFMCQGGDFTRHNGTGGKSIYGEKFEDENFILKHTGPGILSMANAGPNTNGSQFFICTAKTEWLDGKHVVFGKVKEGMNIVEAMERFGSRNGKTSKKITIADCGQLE
- protocol_details: Ras-Raf disruption/FRET/MOA assay (BRAF RBD, Cyclophilin A)
- Assay type: biochemical
- Protocol: Compound is present in plate wells as a 10-point 3-fold dilution series starting at a final concentration of 30 μM. After incubation at 25° C. for 3 hours, a mixture of Anti-His Eu—W1024 and anti-GST allophycocyanin is then added to assay sample wells at final concentrations of 10 nM and 50 nM, respectively, and the reaction incubated for an additional 1.5 hours. […]

Tell me the measured IC50 of CCn1c(-c2cccnc2[C@H](C)OC)c2c3cc(ccc31)-c1csc(n1)C[C@H](NC(=O)[C@H](C(C)C)N(C)C(=O)N1CC[C@@]3(CCNC3=O)C1)C(=O)N1CCC[C@H](N1)C(=O)OCC(C)(C)C2 , please.
10 to 100 nM

Entry to check: CCn1c(-c2cccnc2[C@H](C)OC)c2c3cc(ccc31)-c1csc(n1)C[C@H](NC(=O)[C@H](C(C)C)N(C)C(=O)[C@@H]1OCC[C@@H]1c1ccccc1)C(=O)N1CCC[C@H](N1)C(=O)OCC(C)(C)C2
100 to 1000 nM

And CCn1c(-c2cccnc2[C@H](C)OC)c2c3cc(ccc31)-c1csc(n1)C[C@H](NC(=O)[C@H](C(C)C)N(C)C(=O)N1CCOCC13COC3)C(=O)N1CCC[C@H](N1)C(=O)OCC(C)(C)C2 ?
10 to 100 nM

Moving on to CCn1c(-c2cccnc2[C@H](C)OC)c2c3cc(ccc31)-c1cccc(c1)C[C@H](NC(=O)[C@H](C(C)C)N(C)C(C)=O)C(=O)N1CCC[C@H](N1)C(=O)OCC(C)(C)C2
100 to 1000 nM

====

- target_system: KRAS WT (Homo sapiens (Human), UniProt P01116+P62937)
- Sequence (P01116 other isoform, or with tags, fused parts or gaps, one chain of several): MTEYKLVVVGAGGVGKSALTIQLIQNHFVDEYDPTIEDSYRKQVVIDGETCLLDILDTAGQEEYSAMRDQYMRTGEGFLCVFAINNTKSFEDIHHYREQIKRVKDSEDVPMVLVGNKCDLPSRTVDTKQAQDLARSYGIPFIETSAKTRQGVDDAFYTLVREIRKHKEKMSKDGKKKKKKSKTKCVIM
- protocol_details: Ras-Raf disruption/FRET/MOA assay (BRAF RBD, Cyclophilin A)
- Type: biochemical
- experimental_context: read-out: KRAS WT FRET data IC50
- Procedure: Compound is present in plate wells as a 10-point 3-fold dilution series starting at a final concentration of 30 μM. After incubation at 25° C. for 3 hours, a mixture of Anti-His Eu—W1024 and anti-GST allophycocyanin is then added to assay sample wells at final concentrations of 10 nM and 50 nM, respectively, and the reaction incubated for an additional 1.5 hours. […]
parameter_measured: IC50

The examples below pair each entry with its known result.
1. CCn1c(-c2cccnc2[C@H](C)OC)c2c3cc(ccc31)-c1csc(n1)C[C@H](NC(=O)[C@H](C(C)C)N(C)C(=O)N1CCC[C@H](N(C)C)CC1)C(=O)N1CCC[C@H](N1)C(=O)OCC(C)(C)C2 [Compound A493] = 10 to 100 nM
2. CCn1c(-c2cccnc2[C@H](C)OC)c2c3cc(ccc31)-c1csc(n1)C[C@H](NC(=O)[C@H](C(C)C)N(C)C(=O)N(C)[C@H]1CCN(C)C1)C(=O)N1CCC[C@H](N1)C(=O)OCC(C)(C)C2 [Compound A563] = 100 to 1000 nM
3. CCn1c(-c2cccnc2[C@H](C)OC)c2c3cc(ccc31)-c1csc(n1)C[C@H](NC(=O)[C@H](C(C)C)N(C)C(=O)N1CCC[C@H]1c1ccccc1)C(=O)N1CCC[C@H](N1)C(=O)OCC(C)(C)C2 [Compound A599] = 1000 to 10000 nM

Moving on to the next compound.
Any idea what IC50 was measured for CCn1c(-c2cccnc2[C@H](C)OC)c2c3cc(ccc31)-c1csc(n1)C[C@H](NC(=O)[C@H](C(C)C)N(C)C(=O)N1CCCC[C@H](N(C)C)C1)C(=O)N1CCC[C@H](N1)C(=O)OCC(C)(C)C2 [Compound A491] ?
10 to 100 nM

====

- target_system: KRAS G12V (Homo sapiens (Human), UniProt P01116+P62937, G12V)
- Sequence (P01116 other isoform, or with tags, fused parts or gaps G12V, one chain of several): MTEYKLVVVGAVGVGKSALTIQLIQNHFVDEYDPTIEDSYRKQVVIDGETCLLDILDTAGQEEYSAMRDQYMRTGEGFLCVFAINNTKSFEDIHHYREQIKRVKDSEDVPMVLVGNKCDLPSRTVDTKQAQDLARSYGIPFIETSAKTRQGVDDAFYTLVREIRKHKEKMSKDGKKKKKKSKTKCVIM
- protocol_details: Ras-Raf disruption/FRET/MOA assay (BRAF RBD, Cyclophilin A)
- Assay type: biochemical
- experimental_context: read-out: KRAS G12V FRET IC50
IC50 values, listed per item

Recorded IC50, per entry:
1. CCn1c(-c2cnccc2COC)c2c3cc(ccc31)-c1cc(O)cc(c1)C[C@H](NC(=O)[C@H](C(C)C)N(C)C(=O)N1CCNCC1)C(=O)N1CCC[C@H](N1)C(=O)OCC(C)(C)C2 [Compound A255] = 100 to 1000 nM
2. CCn1c(-c2cnccc2COC)c2c3cc(ccc31)-c1cc(O)cc(c1)C[C@H](NC(=O)[C@H](C(C)C)N(C)C(=O)[C@H]1CCN(C3COC3)C1)C(=O)N1CCC[C@H](N1)C(=O)OCC(C)(C)C2 [Compound A51] = 1000 to 10000 nM
3. CCn1c(-c2cccnc2[C@H](C)OC)c2c3cc(ccc31)-c1csc(n1)C[C@H](NC(=O)[C@H](C(C)C)N(C)C(=O)N1CCCCC1)C(=O)N1CCC[C@H](N1)C(=O)OCC(C)(C)C2 [Compound A363] = 100 to 1000 nM

Which IC50 is listed for CCn1c(-c2cccnc2[C@H](C)OC)c2c3cc(ccc31)-c1cc(O)cc(c1)C[C@H](NC(=O)[C@H](C(C)C)N(C)C(=O)C1CC3(CCOCC3)CO1)C(=O)N1CCC[C@H](N1)C(=O)OCC(C)(C)C2 (stereo partly drawn) [Compound A413] ?
100 to 1000 nM

How about this compound: CCn1c(-c2cccnc2[C@H](C)OC)c2c3cc(ccc31)-c1csc(n1)C[C@H](NC(=O)[C@H](C(C)C)N(C)C(=O)N1CCN3CCOCC3C1)C(=O)N1CCC[C@H](N1)C(=O)OCC(C)(C)C2 (stereo partly drawn) [Compound A296]
100 to 1000 nM

Input CCn1c(-c2cccnc2[C@H](C)OC)c2c3cc(ccc31)-c1cccc(c1)C[C@H](NC(=O)[C@H](C(C)C)N(C)C(=O)[C@H]1CCN(C)C1)C(=O)N1CCC[C@H](N1)C(=O)OCC(C)(C)C2 [Compound A107]
> 10000 nM

Same again, this time with CCn1c(-c2cnccc2COC)c2c3cc(ccc31)-c1cc(O)cc(c1)C[C@H](NC(=O)[C@H](C(C)C)N(C)C(=O)C1CN(C)C1)C(=O)N1CCC[C@H](N1)C(=O)OCC(C)(C)C2 [Compound A88]
1000 to 10000 nM

Now the compound CCn1c(-c2ccccc2[C@H](C)OC)c2c3cc(ccc31)-c1csc(n1)C[C@H](NC(=O)[C@H](C(C)C)N(C)C(=O)[C@H]1CCN(C(=O)OC3COC3)C1)C(=O)N1CCC[C@H](N1)C(=O)OCC(C)(C)C2 [Compound A203]
1000 to 10000 nM

// next record CCn1c(-c2cccnc2[C@H](C)OC)c2c3cc(ccc31)-c1csc(n1)C[C@H](NC(=O)[C@H](C(C)C)N(C)C(=O)N1CC(S(=O)(=O)N(C)C)C1)C(=O)N1CCC[C@H](N1)C(=O)OCC(C)(C)C2 [Compound A551]
100 to 1000 nM

====

- target_system: KRAS WT (Homo sapiens (Human), UniProt P01116+P62937)
- protocol_details: Ras-Raf disruption/FRET/MOA assay (BRAF RBD, Cyclophilin A)
- Assay type: biochemical
- experimental_context: read-out: KRAS WT FRET data IC50
pIC50: −log10 of the molar value.
parameter_measured: pIC50

1. CCn1c(-c2cccnc2[C@H](C)OC)c2c3cc(ccc31)-c1csc(n1)C[C@H](NC(=O)[C@H](C(C)C)N(C)C(=O)[C@H]1[C@@H]3CNC[C@@H]31)C(=O)N1CCC[C@H](N1)C(=O)OCC(C)(C)C2 = 5.00 to 6.00

Alright, here's another compound for you.
Which pIC50 reading was recorded for the compound CCn1c(-c2cccnc2[C@H](C)OC)c2c3cc(ccc31)-c1csc(n1)C[C@H](NC(=O)[C@H](C(C)C)N(C)C(=O)N1CC([C@@H](C)OC)C1)C(=O)N1CCC[C@H](N1)C(=O)OCC(C)(C)C2 ?
7.00 to 8.00

====

- target_system: KRAS G13C (Homo sapiens (Human), UniProt P01116+P62937, G13C)
- Sequence (P01116 other isoform, or with tags, fused parts or gaps G13C): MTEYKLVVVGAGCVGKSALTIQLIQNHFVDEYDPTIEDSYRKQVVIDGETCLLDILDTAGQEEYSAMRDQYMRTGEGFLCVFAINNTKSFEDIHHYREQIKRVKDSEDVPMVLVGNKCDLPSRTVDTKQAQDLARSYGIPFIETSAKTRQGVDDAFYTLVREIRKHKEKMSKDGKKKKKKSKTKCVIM
- Sequence (P62937 whole entry): as the sequence (P62937 whole entry) above
- protocol_details: Ras-Raf disruption/FRET/MOA assay, KRAS G13C
- Assay type: biochemical
- experimental_context: read-out: KRAS G13C FRET IC50
pIC50: −log10 of the molar value.
parameter_measured: pIC50

Below: 3 molecules and their reported pIC50.
1) CCn1c(-c2cnccc2COC)c2c3cc(ccc31)-c1cc(O)cc(c1)C[C@H](NC(=O)[C@@H](CCNC1=NCCO1)C(C)C)C(=O)N1CCC[C@H](N1)C(=O)OCC(C)(C)C2 = < 5.00
2) CCn1c(-c2cnccc2COC)c2c3cc(ccc31)-c1cc(O)cc(c1)C[C@H](NC(=O)[C@H](C(C)C)N(C)C(=O)C1CN(C(=O)[C@@H]3CN3)C1)C(=O)N1CCC[C@H](N1)C(=O)OCC(C)(C)C2 = 6.00 to 7.00
3) CCn1c(-c2cnccc2COC)c2c3cc(ccc31)-c1cc(O)cc(c1)C[C@H](NC(=O)[C@H](C(C)C)N(C)C(=O)CCN(C)C(=O)[C@@H]1CN1)C(=O)N1CCC[C@H](N1)C(=O)OCC(C)(C)C2 = 6.00 to 7.00

Can you look up the measured pIC50 of CCn1c(-c2cccnc2COC)c2c3cc(ccc31)-c1cc(O)cc(c1)C[C@H](NC(=O)[C@H](C(C)C)N(C)C(=O)CCNC1=NCCO1)C(=O)N1CCC[C@H](N1)C(=O)OCC(C)(C)C2 for me?
5.00 to 6.00

How about CCn1c(-c2cnccc2COC)c2c3cc(ccc31)-c1cc(O)cc(c1)C[C@H](NC(=O)[C@@H](CN(C)C(=O)[C@H]1CN1)C(C)C)C(=O)N1CCC[C@H](N1)C(=O)OCC(C)(C)C2 ?
< 5.00
